B1: STX5 (parent)
chain: RSEFTLMAKRIGKDLSNTFAKLEK

- Variants of: B1
- Assay Overview: protein stability index of a GFP-peptide fusion (GPS, HEK-293T) (PSI 1-6); higher = more stable;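 note: lentivirally expressed fusions sorted by FACS into six bins by GFP to DsRed ratio, PSI derived from sequencing read proportions per bin multiplied by bin number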
- Condition Set: c terminus: a fixed tail appended
Items are presented alongside their recorded protein stability index.
Property Measured: protein stability index

>>> print(df.to_string())
            macromolecule_sequence        property_measured  measured_result
0  RSEFTLMAKHIGKDLSNTFAKLEK [R10H]  protein stability index             2.01
1   RSEFTLNAKRIGKDLSNTFAKLEK [M7N]  protein stability index             3.04
2  RSEFTLMAKTIGKDLSNTFAKLEK [R10T]  protein stability index             1.99
3  RSEFTLMAKMIGKDLSNTFAKLEK [R10M]  protein stability index             1.99
4   RSEFTLMAGRIGKDLSNTFAKLEK [K9G]  protein stability index             2.01
5  RSEFTLMAKRIGKDLSNWFAKLEK [T18W]  protein stability index             1.96
6   RSEFTLMARRIGKDLSNTFAKLEK [K9R]  protein stability index             2.04
7  RSEFTLMAKRIGKDLSNTFAKPEK [L22P]  protein stability index             3.06
8  RSEFTLMAKRIGKDRSNTFAKLEK [L15R]  protein stability index             2.97
9  RSEFTLMAKRIGKDLSNTFASLEK [K21S]  protein stability index             2.95

Cited source for all entries: the supplement of paper PMC10567573
